Exercise: state measured Inhibition for each of the molecules provided.
Organism: Homo sapiens
Test: Inhibition constant for human placental alkaline phosphatase at pH 9
Answers are plain numbers, in mM.

The cases that follow already have their Inhibition on record.
O=P(O)(O)CSc1ccccc1: 0.13
O=C(O)Cc1ccc(OCCP(=O)(O)O)cc1: 0.14
O=P(O)(O)COc1ccccc1: 0.9

Dear reader, for each entry below, please note its Inhibition.
1. O=C(O)c1cccc2cc(OCP(=O)(O)O)ccc12
2. N[C@H](Cc1ccc(OCP(=O)(O)O)cc1)C(=O)O
3. O=P(O)(O)CCOc1ccccc1
4. O=P(O)(O)CCSc1ccccc1
5. O=P(O)(O)COc1ccc2ccccc2c1
6. N[C@@H](Cc1ccc(OCP(=O)(O)O)cc1)C(=O)O

Solution:
1: 3.4; 2: 1.85; 3: 0.11; 4: 0.69; 5: 1.1; 6: 1.7
